Measured values drawn from the Deep4Chem optical property database for this set.

# procedure text: solvent given as SMILES
# condition info: in CC#N
Use 1 (yes) when the recorded absorption maximum is no lower than 400 nm; use 0 (no) when it is lower.

[
  {
    "molecule": "N#C/C(=C\\c1ccc(Cl)cc1)c1nc(-c2ccccc2)cs1",
    "label class": "0 (no)"
  },
  {
    "molecule": "O=[N+]([O-])c1ccc(NCCN(Cc2c3ccccc3cc3ccccc23)c2ccc([N+](=O)[O-])cc2[N+](=O)[O-])c([N+](=O)[O-])c1",
    "label class": "0 (no)"
  },
  {
    "molecule": "CCN(CC)c1ccc(-c2nc3c(c4c2-c2ccc(C#N)cc2CC4)-c2ccc(C#N)cc2CC3)cc1",
    "label class": "0 (no)"
  },
  {
    "molecule": "Cc1cc(C)c(C2=[N+]3C(=Cc4c(C)cc(C)n4[B-]3(F)F)c3ccccc32)[nH]1",
    "label class": "1 (yes)"
  },
  {
    "molecule": "CCCCCN(c1ccccc1)c1ccc2c(c1)C(CC)(CC)c1cc(/C=C/c3ccc(/C=C(\\C#N)C(=O)O)s3)ccc1-2",
    "label class": "1 (yes)"
  },
  {
    "molecule": "O=[N+]([O-])c1ccc([N+]2=Cc3ccc4c5c(ccc4c3O[B-]2(c2c(F)c(F)c(F)c(F)c2F)c2c(F)c(F)c(F)c(F)c2F)C=[N+](c2ccc([N+](=O)[O-])cc2)[B-](c2c(F)c(F)c(F)c(F)c2F)(c2c(F)c(F)c(F)c(F)c2F)O5)cc1",
    "label class": "1 (yes)"
  },
  {
    "molecule": "O=P1(c2ccccc2)C(c2cc(C(F)(F)F)cc(C(F)(F)F)c2)=Cc2c3ccc4cccc5ccc(c6cc(-c7ccc(N(c8ccccc8)c8ccccc8)cc7)n1c26)c3c45 (stereo not given)",
    "label class": "1 (yes)"
  },
  {
    "molecule": "CCC1=C(C)C2=Cc3cc4c(cc3B(O)N2C1=O)OCO4",
    "label class": "0 (no)"
  },
  {
    "molecule": "CNc1ncc2nc(C#N)n(Cc3ccccc3)c2n1",
    "label class": "0 (no)"
  },
  {
    "molecule": "CC(=O)OC[C@@H]1O[C@H](N2C=CC3=Nc4nc(C)[n+](C)cc4CN3C2=O)[C@@H](O)[C@H]1O",
    "label class": "0 (no)"
  },
  {
    "molecule": "COc1ccc2nc(/N=N/c3ccc(N(C)C)cc3)sc2c1",
    "label class": "1 (yes)"
  },
  {
    "molecule": "CN(C)c1ccc(/C=C/C(=C(C#N)C#N)c2ccc3c4c(cccc24)CC3)cc1",
    "label class": "1 (yes)"
  },
  {
    "molecule": "Oc1ccccc1/C=N/N=C/c1ccccc1O",
    "label class": "0 (no)"
  },
  {
    "molecule": "Cn1cccc1-c1ccc(C#N)cc1",
    "label class": "0 (no)"
  },
  {
    "molecule": "C(=C\\c1nc2ccccc2[nH]1)/c1ccc(-c2nc3c4cccnc4c4ncccc4c3[nH]2)cc1",
    "label class": "0 (no)"
  },
  {
    "molecule": "COC(=O)c1cc(=O)n(C)c2cc(-c3ccc(N4CCN(C)CC4)cc3)sc12",
    "label class": "1 (yes)"
  },
  {
    "molecule": "CC(C)(C)c1ccc2oc(-c3ccc(-c4nc5cc(C(C)(C)C)ccc5o4)s3)nc2c1",
    "label class": "0 (no)"
  }
]
